Origin of measurements: PubChem BioAssay (NCI)

- System: UACC-257 melanoma
- Assay notes: NCI-60 one-dose screen, 48 h
- Conditions used: 10 µM unless noted
About 83,000 compounds went through this panel and 20% of them were active in at least one assay; those are over-represented in the sample as a whole. Active and inactive are the calls of the source. The calls were made as follows: active = growth percent below 10; inactive = the rest.
Could you please pick one outcome from this set? active, inactive

Solved cases (3 shown):
compound=Cc1ccc2nc(C[n+]3ccc4ccccc4c3)ccc2c1 measured_on="UACC-257 melanoma" label=inactive
compound=C[N+](C)=c1ccc2nc3c(cc(NCCCNc4cc5oc6cc(=[N+](C)C)ccc-6nc5c5ccccc45)c4ccccc43)oc-2c1 measured_on="UACC-257 melanoma" label=inactive
compound=CCN1/C(=C\c2cc[n+](CC)c3ccccc23)C=Cc2ccccc21 measured_on="UACC-257 melanoma" label=active

Lab log entry: `N[C@H](C(=O)O)[C@@H]1CC(Cl)=NO1` — outcome as called in the assay? inactive

Lab log entry: `O=C1c2ccccc2C(=O)N1c1ccccc1` — outcome as called in the assay? inactive

###

- Tested on: CCRF-CEM leukemia
- Assay notes: NCI-60 one-dose screen, 48 h
- Conditions used: 10 µM unless noted
About 83,000 compounds went through this panel and 20% of them were active in at least one assay; those are over-represented in the sample as a whole. Calls of active or inactive are those of the source. How the source made its calls: active means growth percent below 10; inactive means the rest.
Could you please pick one outcome from this set? label 1 for active, label 0 for inactive

Lab log entry: `O=C1OCc2cccc3cccc1c23` — outcome as called in the assay? label 0

Lab log entry: CCC(CCCN(CC)CCc1ccccc1)OC(=O)c1cc(OC)c(OC)c(OC)c1 (configuration not stated) — outcome as called in the assay? label 0

Lab log entry: `OC(CNc1ccnc2cc(Cl)ccc12)CNc1ccnc2cc(Cl)ccc12` — outcome as called in the assay? label 1

Lab log entry: `Nc1ccc(SSc2ccc(N)cc2)cc1` — outcome as called in the assay? label 0

Lab log entry: `CC1(C)CC([P+](c2ccccc2)(c2ccccc2)c2ccccc2)=NN1` — outcome as called in the assay? label 0

Lab log entry: `NC(=O)/C=C/C(=O)c1c(Cl)cccc1Cl` — outcome as called in the assay? label 1

Lab log entry: `CCOC(=O)/C(=C\c1ccc(-c2ccccc2)cc1)C(C)=O` — outcome as called in the assay? label 0

Lab log entry: `O=C(Nc1cccc(Br)c1)Oc1ccc(Cl)c2cccnc12` — outcome as called in the assay? label 0

###

- Test system: PC-3 prostate
- Assay notes: NCI-60 one-dose screen, 48 h
- Conditions used: 10 µM unless noted
Compounds without any hit were thinned out: in the full panel of roughly 83,000, 20% have a hit. Active and inactive are the calls of the source. Rule for the calls: active = growth percent below 10; inactive = the rest.
Could you please pick one outcome from this set? active, inactive

compound="O=C(/C=C\\c1ccccc1)N1c2ccccc2CC1c1c[nH]c2ccccc12 (centres undefined)" measured_on="PC-3 prostate" label=inactive
compound=O[C@H]1[C@H]2c3cc4c(cc3CN3CCC(=C[C@@H]1O)[C@H]23)OCO4 measured_on="PC-3 prostate" label=inactive
compound=N[C@H](C(=O)O)[C@@H]1CC(Cl)=NO1 measured_on="PC-3 prostate" label=inactive
compound=CC(=O)C(=Cc1ccc(C=C(C(C)=O)C(C)=O)cc1)C(C)=O measured_on="PC-3 prostate" label=active
compound="COC(=O)[C@@]12OC[C@]34[C@H]([C@@H](O)[C@@H]1O)[C@@]1(C)[C@H](O)C(=O)C=C(C)[C@@H]1C[C@H]3OC(=O)C(OC(C)=O)[C@@H]24 (some centres undefined)" measured_on="PC-3 prostate" label=active
compound=S=C(N/N=C/c1ccccn1)Nc1ccccn1 measured_on="PC-3 prostate" label=inactive
compound=C[N+](C)=c1ccc2nc3c(cc(NCCCNc4cc5oc6cc(=[N+](C)C)ccc-6nc5c5ccccc45)c4ccccc43)oc-2c1 measured_on="PC-3 prostate" label=active
compound=S=C(NCCNC(=S)[S][Sn]([c]1ccccc1)([c]1ccccc1)[c]1ccccc1)[S][Sn]([c]1ccccc1)([c]1ccccc1)[c]1ccccc1 measured_on="PC-3 prostate" label=active

Lab log entry: `CCOC(=O)c1c(C)[nH]c(CO)c1C` — outcome as called in the assay? inactive
